Reported pKi by item:
- Tested System: Dimer of Gag-Pol polyprotein [489-587] (Human immunodeficiency virus 1)
- Construct: 489-587
- Method Summary: Protease Inhibition Assay
- Assay Conditions: pH 5; 22 °C
When answering, recall that pKi equals minus log10 of the concentration in mol/L, and write that number alone.

Worked examples follow.
| Compound | pKi |
| --- | --- |
| CCC[C@@]1(CCc2ccccc2)CC(=O)C([C@H](CC)c2cccc(NS(=O)(=O)c3ccc(C#N)cn3)c2)C(=O)O1 (some centres not stated) | 11.15 |
| CCC[C@]1(CCc2ccccc2)CC(=O)C([C@H](CC)c2cccc(NS(=O)(=O)c3ccc(C#N)cn3)c2)C(=O)O1 (some centres not stated) | 10.40 |
| CCC[C@@]1(CCc2ccccc2)CC(=O)C([C@@H](CC)c2cccc(NS(=O)(=O)c3ccc(C(F)(F)F)cn3)c2)C(=O)O1 (some centres not stated) | 10.49 |
| CCC[C@@]1(CCc2ccccc2)CC(=O)C([C@@H](CC)c2cccc(NS(=O)(=O)c3ccc(C#N)cn3)c2)C(=O)O1 (some centres not stated) | 10.00 |
| CCC[C@]1(CCc2ccccc2)CC(=O)C([C@H](CC)c2cccc(NS(=O)(=O)c3cn(C)cn3)c2)C(=O)O1 (some centres not stated) | 9.92 |

Per the records, this compound ( CCC[C@]1(CCc2ccccc2)CC(=O)C([C@@H](CC)c2cccc(NS(=O)(=O)c3cn(C)cn3)c2)C(=O)O1 (some centres not stated) ) has pKi equal to 9.00

Per the records, this compound ( CCC[C@@]1(CCc2ccccc2)CC(=O)C([C@H](CC)c2cccc(NS(=O)(=O)c3ccc(C(F)(F)F)cn3)c2)C(=O)O1 (some centres not stated) ) has pKi equal to 11.10

---

Reported log10(Ki) by item:
- Tested System: Dimer of Gag-Pol polyprotein [489-587] (Human immunodeficiency virus 1)
- Construct: 489-587
- Method Summary: Protease Inhibition Assay
- Assay Conditions: pH 5; 22 °C
Give log10 of Ki, with Ki taken in nM.

| Compound | Tested System | Val |
| --- | --- | --- |
| CCCC1(CCc2ccccc2)CC(=O)C(C(CC)c2cccc(NS(=O)(=O)c3cn(C)cn3)c2)C(=O)O1 (stereo not given) | Dimer of Gag-Pol polyprotein [489-587] (Human immunodeficiency virus 1) | 0.00 |
| CCCC1(CCc2ccccc2)CC(=O)C(C(CC)c2cccc(NS(=O)(=O)c3ccccc3)c2)C(=O)O1 (stereo not given) | Dimer of Gag-Pol polyprotein [489-587] (Human immunodeficiency virus 1) | 1.23 |
| CCCC1(CCc2ccccc2)CC(=O)C(C(CC)c2cccc(NS(=O)(=O)c3cccc4cccnc34)c2)C(=O)O1 (stereo not given) | Dimer of Gag-Pol polyprotein [489-587] (Human immunodeficiency virus 1) | 0.48 |

Per the records, this compound ( CCCC1(CCc2ccccc2)CC(=O)C(C(CC)c2cccc(NS(=O)(=O)c3ccc(C#N)cc3)c2)C(=O)O1 (stereo not given) ) has log10(Ki) equal to 0.90

Per the records, this compound ( CCCC1(CCc2ccccc2)CC(=O)C(C(CC)c2cccc(NS(=O)(=O)c3ccc(F)cc3)c2)C(=O)O1 (stereo not given) ) has log10(Ki) equal to 0.78

---

- Tested System: Dimer of Gag-Pol polyprotein [489-587] (Human immunodeficiency virus 1, UniProt P04585)
- Construct: 489-587
- Method Summary: Protease Inhibition Assay
- Assay Conditions: pH 5; 22 °C
Assay Endpoint: Ki (nM)
Reply with just the number (in nM).

Worked examples follow.
| Molecule | Ki [nM] |
| --- | --- |
| CCC[C@@]1(CCc2ccccc2)CC(=O)C([C@@H](CC)c2cccc(NS(=O)(=O)c3cn(C)cn3)c2)C(=O)O1 (stereo not given in full) | 0.3 |
| CCC[C@]1(CCc2ccccc2)CC(=O)C([C@@H](CC)c2cccc(NS(=O)(=O)c3ccc(C(F)(F)F)cn3)c2)C(=O)O1 (stereo not given in full) | 0.22 |
| CCC[C@]1(CCc2ccccc2)CC(=O)C([C@@H](CC)c2cccc(NS(=O)(=O)c3ccc(C#N)cn3)c2)C(=O)O1 (stereo not given in full) | 0.12 |

Per the records, this molecule ( CCC[C@]1(CCc2ccccc2)CC(=O)C([C@H](CC)c2cccc(NS(=O)(=O)c3ccc(C(F)(F)F)cn3)c2)C(=O)O1 (stereo not given in full) ) has Ki equal to 0.018

Per the records, this molecule ( CCC[C@@]1(CCc2ccccc2)CC(=O)C([C@H](CC)c2cccc(NS(=O)(=O)c3cn(C)cn3)c2)C(=O)O1 (stereo not given in full) ) has Ki equal to 0.06
